Where do these numbers come from? They come from patent US11485728B2.

Assay: in vitro
Conditions: PAMPA, PAMPA permeability Classification, 20 μM donor; 5 hours at RT

COMPOUND: COc1cc2c(NC3CCN(C(C)C)CC3)nc(N3CCC(F)(F)CC3)nc2cc1OCCCN1CCCC1 [Compound 400, reference compound]
Papp: 0.055 to 1.5 ×10⁻⁶ cm/s

====

Target: CYP2D6 (Homo sapiens, UniProt P10635)
Construct: from tissue; host or cells: pooled human liver microsomes
Sequence (P10635 whole entry): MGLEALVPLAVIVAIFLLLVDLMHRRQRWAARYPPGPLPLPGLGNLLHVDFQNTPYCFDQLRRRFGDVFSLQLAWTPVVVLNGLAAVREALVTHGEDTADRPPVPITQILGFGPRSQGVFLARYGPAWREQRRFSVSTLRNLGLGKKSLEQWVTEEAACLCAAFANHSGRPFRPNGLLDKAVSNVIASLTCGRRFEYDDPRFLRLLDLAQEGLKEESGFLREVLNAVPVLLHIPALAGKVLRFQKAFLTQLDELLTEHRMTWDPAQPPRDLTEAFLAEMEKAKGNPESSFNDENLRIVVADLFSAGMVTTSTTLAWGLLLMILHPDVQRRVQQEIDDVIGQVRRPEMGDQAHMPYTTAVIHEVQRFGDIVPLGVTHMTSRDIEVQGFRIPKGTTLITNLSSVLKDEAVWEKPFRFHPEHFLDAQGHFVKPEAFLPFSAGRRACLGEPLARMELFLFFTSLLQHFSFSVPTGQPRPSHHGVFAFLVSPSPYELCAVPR
Test: CYP-direct inhibition, CYP2D6
Type: in vitro ADME
Settings: human liver microsome; substrate dextromethorphan; read-out: IC50 CYP-2D6
pIC50: −log10 of the molar value.
METRIC: pIC50

COMPOUND: COc1cc2c(NC3CCN(C(C)C)CC3)nc(C#N)nc2cc1OCCCN1CCCC1 [Compound 235]
RECORDED_MEASUREMENT: < 4.00

COMPOUND: COc1cc2c(NC3CCOCC3)nc(N3CCOCC3)nc2cc1OCCCN1CCCC1 [Compound 195]
RECORDED_MEASUREMENT: < 4.00

COMPOUND: COc1cc2c(NCC(N)=O)nc(N3CCC(F)(F)CC3)nc2cc1OCCCN1CCCC1 [Compound 9]
RECORDED_MEASUREMENT: < 4.00

====

Entries and their IC50 values follow.
System: 5637
Assay: 5637 bladder cancer cell viability (Real-Time-Glo)
Type: cell-based
Details: 72 hr; read-out: IC50, Cell line: 5637
METRIC: IC50

MOLECULE: COc1cc2c(NC3CCN(C(C)C)CC3)nc(-n3ccnc3)nc2cc1OCCCN1CCCC1 [Compound 156]
RECORDED_MEASUREMENT: 1 to 5 µM

MOLECULE: COc1cc2c(NC3CCOCC3)nc(N3CCC3)nc2cc1OCCCN1CCCC1 [Compound 174]
RECORDED_MEASUREMENT: 10 to 20 µM

MOLECULE: COCCNc1nc(N2CCC(F)(F)CC2)nc2cc(OCCCN3CCCC3)c(OC)cc12 [Compound 4]
RECORDED_MEASUREMENT: 10 to 20 µM

MOLECULE: COc1cc2c(NC3CCOCC3)nc(N3CCCC3)nc2cc1OCCCN1CCCC1 [Compound 164]
RECORDED_MEASUREMENT: 5 to 10 µM

MOLECULE: COc1cc2c(Nc3ccncc3)nc(N3CCC(F)(F)CC3)nc2cc1OCCCN1CCCC1 [Compound 7]
RECORDED_MEASUREMENT: 1 to 5 µM

MOLECULE: COc1cc2c(NC3CCOCC3)nc(N3CCC(F)(F)CC3)nc2cc1OCCCN1CCCC1 [Compound 2]
RECORDED_MEASUREMENT: 10 to 20 µM

MOLECULE: COc1cc2c(NC3CCN(C(C)C)CC3)nc(N3CCC3)nc2cc1OCCCN1CCCC1 [Compound 234]
RECORDED_MEASUREMENT: 5 to 10 µM

MOLECULE: COCCN1CCC(Nc2nc(N3CCC(F)(F)CC3)nc3cc(OCCCN4CCCC4)c(OC)cc23)CC1 [Compound 3]
RECORDED_MEASUREMENT: 5 to 10 µM

MOLECULE: COc1cc2c(NC3CCN(C(C)C)CC3)nc(C#N)nc2cc1OCCCN1CCCC1 [Compound 235]
RECORDED_MEASUREMENT: 5 to 10 µM
